target_desc: H1N1 A/New Caledonia/20/1999 (Influenza A virus, UniProt Q6WG00)
condition_context: read-out: Kd (binding constant)
pKd: −log10 of the molar value.
quantity_measured: pKd

{"substance": "GIVNVPN(P/C)NTTKYQQLARSAIAIYNYHQNAHLEFVENLN(V/C)KEQLGEGDMYYITLAATDDAGKKKIYKAKIGVVESAGWTGVEEFKLV [52NC-2]", "quantity_measured": "pKd", "numeric_result": 6.27}

---

A collection of substances and their measured Kd
target_desc: H1 (A/NewCaledonia/20/1999) (Influenza A virus)
condition_context: read-out: affinity constant via yeast surface display
quantity_measured: Kd (nM)

{"substance": "GIVNVPN(P/C)NTTKYQQLARSAIAIYNYHQNAHLEFVENLN(V/C)KEQLGEGDMYYITLAATDDAGKKKIYKAKIGVVESAGWTGVEEFKLV [52NC-2]", "target_desc": "H1 (A/NewCaledonia/20/1999) (Influenza A virus)", "quantity_measured": "Kd", "measurement_units": "nM", "numeric_result": 27.2}
{"substance": "GIVNVPN(P/C)NTTKYQQLARSAIAVYNYHQNAHLEFVENLN(V/C)KEQIAGKTMYYITLAATDDAGKKKIYKAKVGVVESAGWEGVEEFKLV [52solo2]", "target_desc": "H1 (A/NewCaledonia/20/1999) (Influenza A virus)", "quantity_measured": "Kd", "measurement_units": "nM", "numeric_result": 9.1}
{"substance": "GIVNVPN(P/C)NTTKYQQLARSAIAIYNYHQNAHLEFVENLN(V/C)KEQVGGMNMYYITLAATDDAGKKKIYKAKVGVVESAGWKGVEEFKLV [52solo1]", "target_desc": "H1 (A/NewCaledonia/20/1999) (Influenza A virus)", "quantity_measured": "Kd", "measurement_units": "nM", "numeric_result": 20.7}
{"substance": "GIVNVPN(P/C)NTTKYQQLARRAIAIYNNNQNAHLEFVENLN(V/C)KEQTGLGIMYYITLAATDDAGKKKIYKAKIAVVESAGWVAVSEFKLV [52Sing2]", "target_desc": "H1 (A/NewCaledonia/20/1999) (Influenza A virus)", "quantity_measured": "Kd", "measurement_units": "nM", "numeric_result": 44.9}
